Listed next: entries and their corresponding composite z-score.
- target-system: Streptavidin (Streptomyces avidinii) (UniProt P22629)
- Sequence (P22629 whole entry, looked up): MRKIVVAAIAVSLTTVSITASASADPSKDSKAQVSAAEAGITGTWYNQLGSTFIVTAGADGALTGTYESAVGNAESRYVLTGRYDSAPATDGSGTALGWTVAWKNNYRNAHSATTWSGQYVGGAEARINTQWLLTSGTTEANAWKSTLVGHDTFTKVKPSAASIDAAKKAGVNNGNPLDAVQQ
- test-name: compounds binding control protein streptavidin – biophysical, small-molecule microarray, 635/667 nm fluorescence, artefact control for SMM compound annotation, primary screen (AID 1147);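 further: signal reflects streptavidin binding to arrayed compounds as a control protein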
- conditions: higher = more signal
Answer as a number with no unit attached.

Completed entries (count: 2):
• Oc1ccc2cc[n+](Cc3cccc(OC(F)(F)F)c3)cc2c1 = 0.1
• COc1ccc(C(=O)Nc2cccc(CN3C(=O)[C@@]4(O[C@@H](CC(=O)N5Cc6ccccc6C[C@H]5CO)[C@H]([Si](C)(C)c5ccc(OC)cc5)[C@H]4C)c4ccccc43)c2)cc1 = 0.395

Query compound follows.
Short answer please: composite z-score, Streptavidin (Streptomyces avidinii) (UniProt P22629), entry CC(C)(C)OC(=O)CC[C@@]1(C(N)=O)N=C(c2ccc(OCCCO)cc2)O[C@@H]1c1ccccc1N=[N+]=[N-]
1.12

* * *

Quick reference for z-score among some molecules
- test-name: JC-1 mitochondrial signal, unstimulated HepG2 cells – cell-based, JC-1 fluorescence, 24 h, 100 nL compound, profiling panel (AID 1167); further: test concentration not given here
- conditions: HepG2 mitochondrial potential, higher = more signal
API doc: respond with a numeric literal and nothing else, no unit.

Example entries begin here.
- O=C1OCCC=C[C@H]2OC34C=CCN(CCN5CCOCC5)C(=O)[C@H]3N(CCO)C(=O)[C@@H]4C12 (some centres undefined): -0.659
- CC(C)(C)OC(=O)CC[C@@]1(C(=O)N2CCOCC2)N=C(c2ccc(OCCCO)cc2)O[C@@H]1c1ccccc1N=[N+]=[N-]: 2.09
- COCCOC(=O)N1C(=O)[C@@]2(c3cc(C#CCCO)ccc31)[C@H](C(=O)NC[C@H](O)c1ccccc1)[C@H]1C(=O)O[C@H](c3ccccc3)[C@H](c3ccccc3)N1[C@@H]2c1ccc(OCCO)cc1: -1.25

Please find the next molecule below.
So what does the record say about z-score for COc1ccc([Si](C)(C)[C@@H]2[C@@H](CCO)O[C@]3(C(=O)N(Cc4cccc(N5CCCCC5=O)c4)c4ccccc43)[C@H]2C)cc1 ?
-1.94

* * *

Quick list: composite z-score per entry.
- Tested on: PRMT1 (protein arginine N-methyltransferase 1)
- test-name: small molecules binding arginine methyltransferase PRMT1 – biochemical, small-molecule microarray, 635 nm fluorescence, primary screen (AID 1088);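 further: binding of Prmt1 protein to compounds spotted on small-molecule microarray slides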
- conditions: higher = more signal
Please reply with the number alone, leaving off any unit.

* CC(C)(C)OC(=O)CC[C@]1(C(=O)NCC(O)CO)N=C(c2ccc(OCCCO)cc2)O[C@H]1c1ccccc1CN=[N+]=[N-] (stereo not given in full) | 1.06

Now take the following compound into account.
May I ask what composite z-score has been recorded for C=CCNC(=O)[C@H]1[C@@H]2C(=O)O[C@@H](c3ccccc3)[C@@H](c3ccccc3)N2[C@@H](c2ccc(O)cc2)[C@]12C(=O)Nc1ccc(C#Cc3ccc(OC)cc3)cc12 ?
1.49

* * *

- test-name: compound effects on lung adenocarcinoma cell viability – A549, calcein-AM fluorescence, 48 h, basal, profiling panel (AID 1162); further: test concentration not given here
- conditions: higher = more signal
Parameter: z-score. Scope: all listed entries.

Completed entries (count: 4):
* C[C@]1(C(=O)NCC(F)(F)F)c2ccccc2C(=O)N(Cc2cc(F)cc(C(F)(F)F)c2)[C@H]1c1ccc(CO)cc1 | -0.493
* CN(C)CCCCCCNC(=O)[C@@H]1C[C@@H]2C(=O)N[C@@H](Cc3ccccc3)C(=O)N2[C@@H]1c1cccc(OCCO)c1 | -0.778
* CCOC(=O)C1=C[C@@H](C(C)(C)C)N(S(=O)(=O)c2ccc(C)cc2)[C@H]1c1ccc(Cl)c(Cl)c1 | -0.292
* CN1C(=O)C2C(C1=O)C1C=C(c3ccc(CO)cc3)C2C(C2CC2)N1Cc1cc2c(cc1Br)OCO2 (configuration not stated) | 0.302

# next compound below
Name the reported z-score value associated with the compound C=CCC(OC(C)=O)[C@@H]1[C@@H](N(Cc2ccc(-c3cccc(C(F)(F)F)c3)o2)C(=O)c2ccc(C)cc2)c2cc(OCCCO)ccc2N1C(=O)c1ccc2ccccc2n1 (some centres not stated)
1.03

* * *

Reported composite z-score by item:
- Tested on: Human papillomavirus type 1a E7 protein (residues 1-88)
- test-name: HPV1a E7 small-molecule binders, primary screen, biochemical, small-molecule microarray, residues 1-88, 635 nm (AID 1129)
- conditions: small-molecule microarray binding, fluorescence 635 nm; higher = more signal

* Cc1ccc(S[C@]2(C(=O)NCCN3CCOCC3)CC(=O)N(C3CCCCC3)[C@@H]2c2ccc(CO)cc2)cc1 | 1.21
* CCOC(=O)N1C(c2ccc(OCCCO)cc2)=NC(C(=O)OC)N1C(=O)OCC (stereo not drawn) | 1.2
* Cc1ccc(N2C(=O)c3ccccc3[C@@H](C(=O)NC(C)C)[C@@H]2c2ccc(CO)cc2)nc1 | 0.708
* CN(C)CCCC[C@@H]1NC(=O)[C@H]2C[C@@H](C(=O)NCCCCCNC(=O)CS)[C@@H](c3ccc(O)cc3)N2C1=O | -0.54
* COC(=O)c1c(CC[C@@H](CO)NC(=O)Nc2ncn[nH]2)oc(C(=O)Cc2ccccc2)c1C(=O)OC | 0.466

Can you share its composite z-score? I mean this molecule: O=C1OCC=C[C@H]2OC34C=CCN(CCN5CCOCC5)C(=O)[C@H]3N(CCCCCCO)C(=O)[C@@H]4[C@@H]12 (stereo partly drawn)
-0.206

What would you report for C=CCOC(=O)[C@@H]1[C@H]2C(=O)O[C@H](c3ccccc3)[C@H](c3ccccc3)N2[C@H](c2ccc(OCCOC(=O)[C@H]3C[C@H]4C(=O)N[C@@H](CCCC[N+](C)(C)C)C(=O)N4[C@H]3c3cccc(OCCO)c3)cc2)[C@@]12C(=O)Nc1ccc(I)cc12 ?
1.18

Another molecule to check: CCCC[C@H]1OB(O)C[C@H]2C1=C(C)Cn1c(=O)n(-c3ccccc3)c(=O)n12
0.299

* * *

- Tested on: glycogen synthase kinase-3 (GSK3A per assay name; protocol says GSK3B)
- test-name: compounds binding glycogen synthase kinase-3 – biochemical, small-molecule microarray, 635 nm fluorescence, GSK3A, primary screen (AID 1103); further: the record names both GSK3A and GSK3B
- conditions: fluorescence 635 nm, higher = more signal
Below is a list of entries, each paired with its recorded composite z-score value.

# count of solved cases: 5
• COC(=O)[C@@]1(Cc2ccc(F)cc2)[C@H]2c3cc(C(=O)N(C)C)n(CCCNc4ccc(C(F)(F)F)cc4Cl)c3C[C@H]2CN1C(=O)c1ccccc1 = 1.29
• CN1C(=O)C2C=CC(C(O)C(c3ccccc3)c3ccccc3)N(Nc3ccccc3)C2C1=O (centres undefined) = 1.32
• COC(=O)[C@@]1(Cc2ccc(OC)cc2)[C@H]2c3cc(C(=O)N4CCCC4)n(C[C@H](O)CO)c3C[C@H]2CN1C(=O)c1ccccc1 = -0.681
• Cc1cc(C)c(C(O)C2C=CC3C(=O)NC(=O)C3N2Nc2ccccn2)c(C)c1 (centres undefined) = 0.22
• [N-]=[N+]=Nc1ccccc1[C@H]1OC(c2ccc(OCCCO)cc2)=N[C@@]1(CCS(=O)(=O)c1ccccc1)C(=O)N1CCOCC1 = 1.16

I would be grateful if you could share the reported composite z-score for COCCOC(=O)N1C(=O)[C@@]2(c3cc(C#CC4=CCCCC4)ccc31)[C@H](C(=O)N1CCN(c3ncccn3)CC1)[C@H]1C(=O)O[C@H](c3ccccc3)[C@H](c3ccccc3)N1[C@@H]2c1ccc(OCCO)cc1 .
1.18

Also CC(c1ccccc1)C(O)C1C=CC2C(=O)N(c3ccccc3)C(=O)C2N1Nc1ccccc1F (centres undefined) , if possible.
0.214

* * *

Each entry below carries its recorded z-score.
- test-name: blockers of DNA damage checkpoint Chk1 activation – imaging, HeLa, hydroxyurea, phospho-Chk1 antibody, percent positive cells, primary screen (AID 1186)
- conditions: hydroxyurea-induced phospho-Chk1 immunofluorescence imaging, higher = more signal
Please respond with just the number, no unit label.

- Cc1c(NC(=O)/C(C#N)=C/C=C/c2ccccc2)c(=O)n(-c2ccccc2)n1C: 0.062
- Cc1ccc(S[C@]2(C(=O)NCc3ccccc3)CC(=O)N(Cc3cc(C(F)(F)F)cc(C(F)(F)F)c3)[C@@H]2c2ccc(CO)cc2)cc1: 0.199
- O=C1O[C@H](c2ccccc2)[C@H](c2ccccc2)N2[C@H]1[C@@H](C(=O)N1CCCCCCC1)[C@]1(C(=O)Nc3ccc(C#CC4=CCCCC4)cc31)[C@H]2c1ccc(O)cc1: -0.323

Given the entry CO[C@H]1O[C@H](CO)[C@@H](OC(=O)Nc2ccc3c(c2)OCO3)[C@H](OC(=O)Nc2ccc3c(c2)OCO3)[C@H]1OC(=O)Nc1ccc2c(c1)OCO2 , report its measured z-score.
-0.134

Try the molecule COC(=O)[C@@]1(Cc2ccc(OC)cc2)[C@H]2c3cc(C(=O)N4CCCC4)n(CCN4CCOCC4)c3C[C@H]2CN1C(=O)c1ccccc1
0.778

Lookup COCCOC(=O)N1C(=O)[C@@]2(c3cc(C#CCC(C(=O)OC)C(=O)OC)ccc31)[C@H](c1ccc(OCCO)cc1)N1[C@H](c3ccccc3)[C@H](c3ccccc3)OC(=O)[C@H]1[C@@H]2C(=O)NC[C@H](O)c1ccccc1
-0.411

// next record O=C(CS)NCCCCCCNC(=O)[C@H]1C[C@H]2C(=O)N3CCC[C@H]3C(=O)N2[C@H]1c1ccc(O)cc1
-0.508

Likewise for COCCCNC(=O)[C@]1(Cc2ccccc2N=[N+]=[N-])N=C(c2ccc(OCCCO)cc2)O[C@@H]1c1ccccc1CN=[N+]=[N-] ?
-0.659

Can you handle COC(=O)[C@@]1(Cc2ccccc2)[C@H]2c3cc(C(=O)N(C)C)n(Cc4cc(F)c(F)c(F)c4)c3C[C@H]2CN1C(=O)c1ccccc1 next?
-0.217

Item: [N-]=[N+]=NCc1ccccc1[C@H]1OC(c2ccc(OCCCO)cc2)=N[C@@]1(Cc1ccccc1)C(=O)O
-0.594

// same read-out, input: O=C(NCc1ccccc1)[C@@H]1c2ccccc2C(=O)N(C2CCCCC2)[C@H]1c1ccc(CO)cc1
-0.13

Can you handle O=C1O[C@@H](c2ccccc2)[C@@H](c2ccccc2)N2[C@@H](c3ccccc3OCCO)[C@]3(C(=O)Nc4ccc(C#CC5(O)CCCCCC5)cc43)[C@@H](C(=O)NC[C@H](O)c3ccccc3)[C@H]12 next?
-0.213

For COc1ccc(CCNC(=O)[C@@]2(C)c3ccccc3C(=O)N(Cc3ccccc3)[C@H]2c2ccc(CO)cc2)cc1 then?
-0.281

Moving on to COCCOC(=O)N1C(=O)[C@@]2(c3cc(C#CCCO)ccc31)[C@H](C(=O)NC[C@H](O)c1ccccc1)[C@H]1C(=O)O[C@H](c3ccccc3)[C@H](c3ccccc3)N1[C@@H]2c1ccc(OCCO)cc1
0.0945

Let us now turn to O=C1O[C@@H](c2ccccc2)[C@@H](c2ccccc2)N2[C@@H](c3ccc(O)cc3)[C@]3(C(=O)Nc4ccccc43)[C@@H](C(=O)N3CCCCCCC3)[C@H]12
0.242

Field entry: CC(=O)N1Cc2ccccc2C[C@@]2(N=C(c3ccc(OCCCO)cc3)O[C@H]2c2ccccc2)C1=O
-0.662

Can you check C=CC[C@@]1(C(=O)OC)N=C(c2ccc(OCCCO)cc2)O[C@@H]1c1ccccc1CN=[N+]=[N-] next?
-1.07

Value source: PubChem BioAssay
